# testedTarget: Ribosomal protein S6 kinase alpha-4 (Homo sapiens) (UniProt O75676);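 note: mean inhibition of MSK2, GSK PKIS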
# Sequence (O75676 whole entry, looked up): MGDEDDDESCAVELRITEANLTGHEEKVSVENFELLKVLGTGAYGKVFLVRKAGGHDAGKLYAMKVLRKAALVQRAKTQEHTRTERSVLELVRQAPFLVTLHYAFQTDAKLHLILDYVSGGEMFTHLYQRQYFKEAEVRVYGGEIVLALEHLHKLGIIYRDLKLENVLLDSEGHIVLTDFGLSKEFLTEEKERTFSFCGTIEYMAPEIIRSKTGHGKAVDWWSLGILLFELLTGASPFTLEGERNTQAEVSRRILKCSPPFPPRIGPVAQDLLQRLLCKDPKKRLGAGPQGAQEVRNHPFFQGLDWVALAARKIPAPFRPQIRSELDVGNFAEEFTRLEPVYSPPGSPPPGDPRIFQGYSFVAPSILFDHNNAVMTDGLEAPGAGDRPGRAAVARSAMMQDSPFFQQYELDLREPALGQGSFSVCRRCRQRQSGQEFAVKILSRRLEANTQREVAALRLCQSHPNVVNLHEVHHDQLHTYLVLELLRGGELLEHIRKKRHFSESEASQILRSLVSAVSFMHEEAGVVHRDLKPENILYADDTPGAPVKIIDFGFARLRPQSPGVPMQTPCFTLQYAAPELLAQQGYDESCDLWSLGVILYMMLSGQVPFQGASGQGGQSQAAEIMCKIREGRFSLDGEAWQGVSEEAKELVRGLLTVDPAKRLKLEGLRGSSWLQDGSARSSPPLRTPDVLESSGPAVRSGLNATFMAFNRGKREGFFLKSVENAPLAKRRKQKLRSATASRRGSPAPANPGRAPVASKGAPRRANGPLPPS
# measurementSetup: at 1 µM
reportedEndpoint: inhibition (%)
Use % as the unit, but write only the number.

Query block: If you can, please state the reported inhibition value of CN(c1ccc(NC(=O)Nc2ccc(OC(F)(F)F)cc2)cc1)c1ccnc(Nc2cccc(S(N)(=O)=O)c2)n1 .
Result block: 4.78

Query block: If you can, please state the reported inhibition value of Cc1ccc(O)cc1Nc1ccnc2ccc(S(C)(=O)=O)cc12 .
Result block: 3.94

Query block: If you can, please state the reported inhibition value of NC(=O)c1cccc(Nc2nccc(Nc3cccc(F)c3)n2)c1 .
Result block: 1.21

Query block: If you can, please state the reported inhibition value of Cc1ccc(NC(=O)CC2CC2)cc1-c1ccc(C(=O)NCC2CC2)cc1 .
Result block: 2.4

Query block: If you can, please state the reported inhibition value of C[C@@H](Oc1cc(-n2cnc3ccc(OC[C@@H](O)CO)cc32)sc1C(N)=O)c1ccccc1Cl .
Result block: 1.7

Query block: If you can, please state the reported inhibition value of N#Cc1c(NC(=O)c2ccccc2F)sc2c1CCCC2 .
Result block: -0.35

Query block: If you can, please state the reported inhibition value of CN(C)c1cc2c(Nc3ccc4c(cnn4Cc4ccccc4)c3)ncnc2cn1 .
Result block: 6.24

Query block: If you can, please state the reported inhibition value of O=C1Nc2ccc(-c3cccnc3)cc2C1=Cc1cc(Br)c(O)c(Br)c1 .
Result block: 2.67

Query block: If you can, please state the reported inhibition value of NS(=O)(=O)c1ccc(-c2cc3ccncc3cc2OCc2ccccc2)cc1 .
Result block: 2.64

Query block: If you can, please state the reported inhibition value of ON=C1CCc2cc(-c3nc(C4CCNCC4)[nH]c3-c3ccncc3)ccc21 .
Result block: 1.3

Query block: If you can, please state the reported inhibition value of CN(C)CCCn1c(-c2nonc2N)nc2cnccc21 .
Result block: 13.9

Query block: If you can, please state the reported inhibition value of c1ccc(Cc2nc3ccc(Nc4ncnc5ccccc45)cc3[nH]2)cc1 .
Result block: 2.83

Query block: If you can, please state the reported inhibition value of OCc1ccc(-c2nc(-c3ccccn3)c(-c3ccc4c(c3)OCO4)[nH]2)cc1 .
Result block: 3.89

Query block: If you can, please state the reported inhibition value of N#Cc1cccc(Nc2nccc(-c3cnn4ncccc34)n2)c1 .
Result block: 8.46

Query block: If you can, please state the reported inhibition value of NS(=O)(=O)c1ccc(N/N=C2\C(=O)Nc3ccc(Cl)cc32)cc1 .
Result block: 5.77

Query block: If you can, please state the reported inhibition value of CCOc1nccc2c1nc(-c1nonc1N)n2CC .
Result block: 27.6

Query block: If you can, please state the reported inhibition value of O=S(=O)(CCOCc1ccc(-c2ccc3ncnc(Nc4ccc(OCc5cccc(F)c5)c(Cl)c4)c3c2)o1)c1ccccc1 .
Result block: 0.33

Query block: If you can, please state the reported inhibition value of Cc1nc(-c2ccccc2)n2nc(NCCCN3CCOCC3)ncc12 .
Result block: 3.6

Query block: If you can, please state the reported inhibition value of CS(=O)(=O)Nc1cccc(-c2ccc3c(NC(=O)C4CC4)n[nH]c3c2)c1 .
Result block: 2.85

Query block: If you can, please state the reported inhibition value of Cc1cc(O)cc(C)c1/C=C/c1cncc(C(=O)N(C)C)c1 .
Result block: 2.46

Query block: If you can, please state the reported inhibition value of CN(C)C(=O)O[C@H]1CN[C@H](C#Cc2cc3ncnc(Nc4ccc(OCc5cccc(F)c5)c(Cl)c4)c3s2)C1 .
Result block: 4.03

----------
# testedTarget: Mitogen-activated protein kinase 14 (Homo sapiens) (UniProt Q16539);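 note: values are mean percent inhibition of p38α kinase from the GSK PKIS published kinase inhibitor set screen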
# Sequence (Q16539 whole entry): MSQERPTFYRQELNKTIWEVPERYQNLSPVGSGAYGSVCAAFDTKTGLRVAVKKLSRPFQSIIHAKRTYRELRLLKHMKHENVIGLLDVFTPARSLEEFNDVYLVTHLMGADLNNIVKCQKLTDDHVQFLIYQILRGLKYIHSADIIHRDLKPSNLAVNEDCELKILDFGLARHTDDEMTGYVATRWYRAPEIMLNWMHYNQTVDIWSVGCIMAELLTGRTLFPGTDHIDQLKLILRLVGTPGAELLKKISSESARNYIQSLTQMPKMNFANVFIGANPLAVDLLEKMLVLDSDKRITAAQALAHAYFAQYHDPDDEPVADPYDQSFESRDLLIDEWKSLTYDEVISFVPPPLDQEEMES
# measurementSetup: at 0.1 µM
Provide the reported inhibition of each item.
Use % as the unit, but write only the number.

Query block: If you can, please state the reported inhibition value of COc1cc(/C=N/Nc2ncnc3c2cnn3C(C)C)ccc1O .
Result block: 1.82

Query block: If you can, please state the reported inhibition value of NS(=O)(=O)c1ccc(N/N=C2\C(=O)Nc3ccc(Cl)cc32)cc1 .
Result block: 0.03

Query block: If you can, please state the reported inhibition value of CCn1c(-c2nonc2N)nc2ccc(F)cc21 .
Result block: 5.24

Query block: If you can, please state the reported inhibition value of N#Cc1c(NC(=O)c2ccccc2F)sc2c1CCCC2 .
Result block: -1.85

Query block: If you can, please state the reported inhibition value of CCS(=O)(=O)c1ccc(OC)c(Nc2nccc(N(C)c3ccc4c(C)n[nH]c4c3)n2)c1 .
Result block: 5.92

Query block: If you can, please state the reported inhibition value of Oc1cccc(-c2nc(-c3ccccc3)[nH]c2-c2ccncc2)c1 .
Result block: 34.9

Query block: If you can, please state the reported inhibition value of c1ccc(Cc2nc3ccc(Nc4ncnc5ccccc45)cc3[nH]2)cc1 .
Result block: 6.98

Query block: If you can, please state the reported inhibition value of CCOc1nccc2c1nc(-c1nonc1N)n2CC .
Result block: -6.67

Query block: If you can, please state the reported inhibition value of Cc1cc(O)cc(C)c1/C=C/c1cncc(C(=O)N(C)C)c1 .
Result block: 5.83

Query block: If you can, please state the reported inhibition value of COc1cc2ncnc(Nc3ccc4c(cnn4Cc4ccccc4)c3)c2cc1OC .
Result block: 4.33

Query block: If you can, please state the reported inhibition value of O=C1Nc2ccc(-c3cccnc3)cc2C1=Cc1cc(Br)c(O)c(Br)c1 .
Result block: 5.87

----------
# testedTarget: Serine/threonine-protein kinase Sgk2 (Homo sapiens) (UniProt Q9HBY8);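 note: each value is a mean percent inhibition of SGK2 from the GSK PKIS kinase screen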
# Sequence (whole entry): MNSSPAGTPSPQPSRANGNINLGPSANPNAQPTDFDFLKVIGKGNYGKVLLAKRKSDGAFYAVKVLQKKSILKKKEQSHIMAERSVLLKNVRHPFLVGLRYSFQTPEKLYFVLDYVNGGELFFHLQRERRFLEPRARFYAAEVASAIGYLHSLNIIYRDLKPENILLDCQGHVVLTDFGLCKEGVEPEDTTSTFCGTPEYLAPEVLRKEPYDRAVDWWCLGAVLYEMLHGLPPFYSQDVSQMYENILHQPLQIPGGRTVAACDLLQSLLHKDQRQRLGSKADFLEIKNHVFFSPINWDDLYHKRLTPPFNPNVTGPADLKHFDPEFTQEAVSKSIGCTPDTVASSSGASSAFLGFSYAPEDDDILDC
# measurementSetup: at 0.1 µM
reportedEndpoint: inhibition
Please state the number and follow it with the unit.

Query block: If you can, please state the reported inhibition value of c1ccc(Nc2ncc(-c3ccccc3)o2)cc1 .
Result block: 2.47%

Query block: If you can, please state the reported inhibition value of COC(=O)c1cncc(/C=C/c2c(C)cc(O)cc2C)c1 .
Result block: 3.28%

Query block: If you can, please state the reported inhibition value of C[C@@H](Oc1cc(-n2cnc3ccc(OCC4CCN(C)CC4)cc32)sc1C(N)=O)c1ccccc1C(F)(F)F .
Result block: -2.58%

----------
# System: Epidermal growth factor receptor (Homo sapiens), P00533 [T790M]
# Sequence (P00533 whole entry T790M): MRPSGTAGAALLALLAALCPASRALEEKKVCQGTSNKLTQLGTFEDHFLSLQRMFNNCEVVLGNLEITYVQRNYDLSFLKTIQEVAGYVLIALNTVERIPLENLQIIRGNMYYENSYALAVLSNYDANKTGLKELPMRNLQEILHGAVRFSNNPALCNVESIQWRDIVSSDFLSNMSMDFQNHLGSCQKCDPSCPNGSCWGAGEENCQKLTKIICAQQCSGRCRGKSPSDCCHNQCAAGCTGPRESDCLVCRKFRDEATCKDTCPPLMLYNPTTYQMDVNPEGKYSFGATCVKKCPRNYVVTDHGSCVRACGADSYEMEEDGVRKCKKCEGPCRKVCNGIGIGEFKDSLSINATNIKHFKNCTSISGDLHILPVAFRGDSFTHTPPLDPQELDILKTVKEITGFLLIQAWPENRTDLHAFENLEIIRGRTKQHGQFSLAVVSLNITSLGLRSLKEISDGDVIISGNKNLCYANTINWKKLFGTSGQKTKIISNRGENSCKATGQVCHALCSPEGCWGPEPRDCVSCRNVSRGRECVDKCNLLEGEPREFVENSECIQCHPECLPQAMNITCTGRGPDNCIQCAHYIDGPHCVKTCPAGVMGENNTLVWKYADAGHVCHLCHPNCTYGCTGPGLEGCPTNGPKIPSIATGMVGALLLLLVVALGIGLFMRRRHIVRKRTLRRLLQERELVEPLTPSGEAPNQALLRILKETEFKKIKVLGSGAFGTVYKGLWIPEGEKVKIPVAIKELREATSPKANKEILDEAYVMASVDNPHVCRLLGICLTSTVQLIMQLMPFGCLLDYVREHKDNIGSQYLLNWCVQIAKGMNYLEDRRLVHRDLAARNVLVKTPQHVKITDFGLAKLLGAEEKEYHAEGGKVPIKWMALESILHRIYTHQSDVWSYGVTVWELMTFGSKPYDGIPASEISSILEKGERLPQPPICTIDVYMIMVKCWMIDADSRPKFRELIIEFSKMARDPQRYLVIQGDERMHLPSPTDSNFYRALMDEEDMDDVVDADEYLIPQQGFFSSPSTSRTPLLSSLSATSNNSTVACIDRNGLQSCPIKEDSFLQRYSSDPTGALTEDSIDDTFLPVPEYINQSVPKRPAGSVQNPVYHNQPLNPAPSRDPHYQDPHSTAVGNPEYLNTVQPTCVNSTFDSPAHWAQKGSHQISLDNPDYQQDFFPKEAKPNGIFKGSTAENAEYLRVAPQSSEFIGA
# measurementSetup: at 0.1 µM
reportedEndpoint: inhibition (%)
Use % as the unit, but write only the number.

Query block: If you can, please state the reported inhibition value of CN(C)CCCn1c(-c2nonc2N)nc2cnccc21 .
Result block: 2.09

Query block: If you can, please state the reported inhibition value of COc1cc(Nc2nccc(-c3cnn4ncccc34)n2)cc(OC)c1 .
Result block: 0.47

Query block: If you can, please state the reported inhibition value of Cc1ccc2c(c1)/C(=N/Nc1ccc(S(N)(=O)=O)cc1)C(=O)N2 .
Result block: -0.84

Query block: If you can, please state the reported inhibition value of COc1cc2ncn(-c3cc(OCc4ccccc4S(C)(=O)=O)c(C#N)s3)c2cc1OC .
Result block: 3.02

Query block: If you can, please state the reported inhibition value of NS(=O)(=O)c1cccc(Nc2cc(-c3ccc(F)cc3)n[nH]2)c1 .
Result block: 2.62

Query block: If you can, please state the reported inhibition value of COc1cccc(-n2nc(C)c3c(N/N=C(\C)c4ccncc4)ncnc32)c1 .
Result block: -1.78

Query block: If you can, please state the reported inhibition value of NS(=O)(=O)c1ccc(NC=C2C(=O)Nc3ccc4ncsc4c32)cc1 .
Result block: 2.24

----------
# testedTarget: Phosphatidylinositol 4,5-bisphosphate 3-kinase catalytic subunit delta isoform (Homo sapiens) (UniProt O00329);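 note: values are mean percent inhibition of PI3K-delta, part of the GSK PKIS screen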
# Sequence (O00329 whole entry, canonical isoform): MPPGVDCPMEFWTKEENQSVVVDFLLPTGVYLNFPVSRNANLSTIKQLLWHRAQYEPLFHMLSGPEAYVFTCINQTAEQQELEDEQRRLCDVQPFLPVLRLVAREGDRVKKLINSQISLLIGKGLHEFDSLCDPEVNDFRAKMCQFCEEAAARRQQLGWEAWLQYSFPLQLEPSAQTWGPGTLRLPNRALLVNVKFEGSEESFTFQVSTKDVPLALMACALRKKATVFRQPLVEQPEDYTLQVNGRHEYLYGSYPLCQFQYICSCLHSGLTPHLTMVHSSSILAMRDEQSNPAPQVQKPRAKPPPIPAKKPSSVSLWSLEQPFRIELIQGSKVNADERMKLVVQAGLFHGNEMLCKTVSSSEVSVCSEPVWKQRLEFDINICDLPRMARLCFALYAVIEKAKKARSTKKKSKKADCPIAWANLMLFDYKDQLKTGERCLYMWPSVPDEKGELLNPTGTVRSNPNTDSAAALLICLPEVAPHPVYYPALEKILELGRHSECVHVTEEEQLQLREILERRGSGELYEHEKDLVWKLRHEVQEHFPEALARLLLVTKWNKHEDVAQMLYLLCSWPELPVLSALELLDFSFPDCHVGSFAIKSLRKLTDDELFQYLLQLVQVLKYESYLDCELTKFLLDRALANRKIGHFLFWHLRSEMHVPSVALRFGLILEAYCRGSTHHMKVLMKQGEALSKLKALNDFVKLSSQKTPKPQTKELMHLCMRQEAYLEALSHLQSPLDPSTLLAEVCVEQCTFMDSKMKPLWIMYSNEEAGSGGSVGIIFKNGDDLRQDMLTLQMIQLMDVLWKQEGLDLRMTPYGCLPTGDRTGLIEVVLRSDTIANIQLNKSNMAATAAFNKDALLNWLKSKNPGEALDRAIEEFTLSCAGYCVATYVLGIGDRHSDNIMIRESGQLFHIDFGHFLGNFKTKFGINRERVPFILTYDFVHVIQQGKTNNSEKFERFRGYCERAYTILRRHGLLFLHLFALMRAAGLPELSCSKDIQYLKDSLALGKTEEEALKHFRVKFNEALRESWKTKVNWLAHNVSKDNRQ
# measurementSetup: at 0.1 µM
Provide the reported inhibition of each item.
Use % as the unit, but write only the number.

Query block: If you can, please state the reported inhibition value of NS(=O)(=O)c1cccc(Nc2cc(-c3ccc(F)cc3)n[nH]2)c1 .
Result block: -0.13

Query block: If you can, please state the reported inhibition value of NS(=O)(=O)c1ccc(-c2cc3ccncc3cc2OCc2ccccc2)cc1 .
Result block: 1.97

Query block: If you can, please state the reported inhibition value of COC(=O)Nc1nc2cc(Oc3ccc(NC(=O)Nc4cccc(Br)c4)cc3)ccc2[nH]1 .
Result block: 1.03

Query block: If you can, please state the reported inhibition value of CN(C)C(=O)O[C@H]1CN[C@H](C#Cc2cc3ncnc(Nc4ccc(OCc5cccc(F)c5)c(Cl)c4)c3s2)C1 .
Result block: 1.7

Query block: If you can, please state the reported inhibition value of O=S(=O)(CCOCc1ccc(-c2ccc3ncnc(Nc4ccc(OCc5cccc(F)c5)c(Cl)c4)c3c2)o1)c1ccccc1 .
Result block: 0.99

Query block: If you can, please state the reported inhibition value of COc1cc2ncnc(Nc3ccc4c(cnn4Cc4ccccc4)c3)c2cc1OC .
Result block: 0.53

Query block: If you can, please state the reported inhibition value of COC(=O)c1ccc2c(c1)C(=Cc1cc(Br)c(O)c(Br)c1)C(=O)N2 .
Result block: -9.64

Query block: If you can, please state the reported inhibition value of CS(=O)(=O)CCNCc1nc(-c2ccc3ncnc(Nc4ccc(OCc5cccc(C(F)(F)F)c5)cc4)c3c2)cs1 .
Result block: 0.76

Query block: If you can, please state the reported inhibition value of N#Cc1cccc(Nc2nccc(-c3cnn4ncccc34)n2)c1 .
Result block: 3.45

Query block: If you can, please state the reported inhibition value of CN1CCN(C(=O)c2ccc(NC(=O)Nc3ccc(N(C)c4ccnc(Nc5ccc(CS(C)(=O)=O)cc5)n4)cc3)cc2)CC1 .
Result block: 1.78

Query block: If you can, please state the reported inhibition value of COc1cc2ncn(-c3cc(OCc4ccccc4S(C)(=O)=O)c(C#N)s3)c2cc1OC .
Result block: 2.67

Query block: If you can, please state the reported inhibition value of O=C(Nc1ccc(Oc2ccc3[nH]c(NC(=O)c4ccco4)nc3c2)cc1)Nc1cc(C(F)(F)F)ccc1F .
Result block: 0.36

Query block: If you can, please state the reported inhibition value of Cc1ccc(NC(=O)CC2CC2)cc1-c1ccc(C(=O)NCC2CC2)cc1 .
Result block: 0.9

Query block: If you can, please state the reported inhibition value of OCc1ccc(-c2nc(-c3ccccn3)c(-c3ccc4c(c3)OCO4)[nH]2)cc1 .
Result block: 1.52

Query block: If you can, please state the reported inhibition value of Cc1nc(-c2ccccc2)n2nc(NCCCN3CCOCC3)ncc12 .
Result block: -0.22

Query block: If you can, please state the reported inhibition value of CN(C)C(=O)O[C@@H]1CN[C@@H](C#Cc2cc3ncnc(Nc4ccc(OCc5cccc(F)c5)c(Cl)c4)c3s2)C1 .
Result block: 3.66

Query block: If you can, please state the reported inhibition value of Cc1cc(-c2ccccn2)cc(C)c1/C=C/c1cncc(-c2nn[nH]n2)c1 .
Result block: 0.41

Query block: If you can, please state the reported inhibition value of NS(=O)(=O)c1ccc(Nc2cc(-c3cccc(O)c3)n[nH]2)cc1 .
Result block: 2.48

Query block: If you can, please state the reported inhibition value of ON=C1CCc2cc(-c3nc(C4CCNCC4)[nH]c3-c3ccncc3)ccc21 .
Result block: 0.31
